Measurement label: melting point

>>> df
                            compound_smiles  measurement_label  observed_measurement
0  CCc1cc(C(=O)O)ccc1N=C1SCC2(CCCC2)N1C1CCCC1      melting point         208 to 209 °C
1  Cc1cc([N+](=O)[O-])ccc1N=C1SC(=O)CN1CC(C)C      melting point                152 °C
2  CCc1cc(C(C)=O)ccc1N=C1SCC2(CCCC2)N1C1CCCC1      melting point         114 to 115 °C
3  CCc1cc(/C=C/[N+](=O)[O-])ccc1N=C1SCC2(CCCC2)N1C1CCCC1      melting point         141 to 142 °C
4  CCc1cc(C=C(C#N)C#N)ccc1N=C1SCC2(CCCC2)N1C1CCCC1      melting point         135 to 136 °C
5     CCc1cc(C#N)ccc1N=C1OCC(C)(C)N1C1CCCC1      melting point         112 to 114 °C
